pKi: −log10 of the molar value.
Quick record of pKi values for Prothrombin (Homo sapiens, UniProt P00734).
Endpoint Name: pKi

See these solved cases before continuing.
>  <Compound>
COC(=N)NS(=O)(=O)c1c(F)c(F)c(F)c(F)c1F

>  <System>
Prothrombin (Homo sapiens, UniProt P00734)

>  <pKi>
6.82

$$$$
>  <Compound>
COC(=N)NS(=O)(=O)c1ccc(C(=O)O)cc1

>  <System>
Prothrombin (Homo sapiens, UniProt P00734)

>  <pKi>
6.88

$$$$
>  <Compound>
CN(C)c1ccc(/N=N/c2ccc(S(=O)(=O)N=C(N)N)cc2)cc1

>  <System>
Prothrombin (Homo sapiens, UniProt P00734)

>  <pKi>
6.87

$$$$
>  <Compound>
N=C(N)NNS(=O)(=O)c1ccc(C(=O)O)cc1

>  <System>
Prothrombin (Homo sapiens, UniProt P00734)

>  <pKi>
7.01

$$$$
>  <Compound>
COC(=N)NS(=O)(=O)C(F)(F)C(F)(F)C(F)(F)C(F)(F)C(F)(F)C(F)(F)C(F)(F)C(F)(F)F

>  <System>
Prothrombin (Homo sapiens, UniProt P00734)

>  <pKi>
6.39

$$$$
>  <Compound>
COC(=N)NS(=O)(=O)c1ccc(NC(=O)[C@@H](Cc2ccccc2)NC(=O)OCc2ccccc2)cc1

>  <System>
Prothrombin (Homo sapiens, UniProt P00734)

>  <pKi>
7.21

$$$$
>  <Compound>
Cc1ccc(S(=O)(=O)NC(=O)N[C@@H](Cc2ccccc2)C(=O)N2CCCC2C(=O)Nc2ccc(S(=O)(=O)NN=C(N)N)cc2)cc1 (some centres not stated)

>  <System>
Prothrombin (Homo sapiens, UniProt P00734)

>  <pKi>
8.00

$$$$
>  <Compound>
N=C(N)NS(=O)(=O)c1ccc(C(=N)N)cc1

>  <System>
Prothrombin (Homo sapiens, UniProt P00734)

>  <pKi>
6.52

$$$$

1: COC(=N)NS(=O)(=O)c1ccc(NC(=O)[C@H](Cc2c[nH]cn2)NC(=O)CNC(=O)NS(=O)(=O)c2ccc(C)cc2)cc1
2: COC(=N)NS(=O)(=O)c1ccc(NC(=O)C2CCCN2C(=O)NS(=O)(=O)c2ccc(C)cc2)cc1 (configuration not stated)
Would you mind telling me which has the lower recorded pKi between 1 and 2 ? # respond with the chosen item's label
2
(2: 7.20, 1: 7.68)

###

target: Trypsin (Homo sapiens, UniProt P07477+P07478+P35030); assay: Inhibitory activity against human trypsin (using Chromozym TH as the substrate); type: protein assay
Endpoint Name: Ki (nM)

>  <Sample Smiles>
COC(=N)NS(=O)(=O)c1ccc(Br)cc1

>  <Endpoint Name>
Ki

>  <Observed Value>
1370

$$$$
>  <Sample Smiles>
COC(=N)NS(=O)(=O)c1ccc(/N=N/c2ccc(N(C)C)cc2)cc1

>  <Endpoint Name>
Ki

>  <Observed Value>
1350

$$$$

I: Cc1ccc(S(=O)(=O)NC(=O)N[C@H](Cc2ccccc2)C(=O)Nc2ccc(S(=O)(=O)N=C(N)N)cc2)cc1
II: CN(C)S(=O)(=O)N=C(N)N
Larger number for Ki: I , or II ? Write down the label attached to your selection.
II

###

Here we list compounds with their recorded Ki when tested on UniProtKB P00734.
Endpoint Name: Ki (nM)

>  <Compound>
Cc1ccc(S(=O)(=O)NC(=O)N[C@H](Cc2ccccc2)C(=O)Nc2ccc(S(=O)(=O)N=C(N)N)cc2)cc1

>  <Ki (nM)>
43

$$$$
>  <Compound>
N=C(N)NNS(=O)(=O)c1cc(Cl)cc(Cl)c1O

>  <Ki (nM)>
98

$$$$
>  <Compound>
COC(=N)NS(=O)(=O)c1ccc(N)cc1

>  <Ki (nM)>
106

$$$$
>  <Compound>
N=C(N)NS(=O)(=O)c1ccc(Cl)cc1

>  <Ki (nM)>
225

$$$$
>  <Compound>
Cc1ccc(S(=O)(=O)N=C(N)N)cc1

>  <Ki (nM)>
290

$$$$
>  <Compound>
N=C(N)NS(=O)(=O)Cc1ccccc1

>  <Ki (nM)>
330

$$$$

I: COC(=N)NS(=O)(=O)Cc1ccccc1
II: CN(C)c1cccc2c(S(=O)(=O)N=C(N)N)cccc12
III: Cc1ccc(S(=O)(=O)NC(=O)NCC(=O)N[C@@H](Cc2c[nH]cn2)C(=O)Nc2ccc(S(=O)(=O)NN=C(N)N)cc2)cc1
List items by Ki in falling order. Output the labels ranked as instructed.
I, II, III
